# assayedTarget: 0N4R Tau fibrils (Homo sapiens, UniProt P10636)
# Construct: made in house
# Sequence (P10636 1-383 isoform P10636-6): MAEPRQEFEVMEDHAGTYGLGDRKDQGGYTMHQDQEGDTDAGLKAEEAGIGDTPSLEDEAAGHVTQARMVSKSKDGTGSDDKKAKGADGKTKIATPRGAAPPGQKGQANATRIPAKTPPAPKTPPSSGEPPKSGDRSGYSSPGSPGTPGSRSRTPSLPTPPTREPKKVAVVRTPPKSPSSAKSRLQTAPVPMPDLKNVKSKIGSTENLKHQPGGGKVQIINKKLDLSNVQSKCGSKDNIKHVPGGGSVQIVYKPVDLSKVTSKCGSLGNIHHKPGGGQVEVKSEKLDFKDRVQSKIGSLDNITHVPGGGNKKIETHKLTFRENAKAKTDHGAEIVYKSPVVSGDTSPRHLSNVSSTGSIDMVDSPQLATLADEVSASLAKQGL
# procedureText: ^3H-THK5117 competition binding to tau fibrils in vitro
# reportedConditions: 3 nM [^3H]-THK5117, recombinant 0N4R tau fibrils; average if run more than once
readoutKind: IC50 (nM)
Express it in nM; write the number only.

FCCC1CCN(c2ccc(-c3nc4ccccc4s3)cn2)CC1 = 6

Tell me the measured IC50 of OCC1CCN(c2ccc(-c3nc4ccc(OCCF)cc4s3)cn2)CC1 , please.
2

Subsequent entry: NC(=O)c1ccc2nc(-c3cnc(N4CCC(CCF)CC4)nc3)sc2c1
4

Next compound: NC(=O)COC1CCN(c2ncc(-c3cc4ccccc4o3)cn2)CC1
32

Data provenance: patent US12636385B2
